# System: 621-102 (TSC2-deficient);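 note: immortalized renal angiomyolipoma cells stably carrying empty vector or TSC2, dosed in 384-well plates in DMEM, viability normalized to vehicle-treated wells within each plate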
# TEST SUMMARY: relative viability vs DMSO; higher = less cytotoxic
# CONDITION: 10 µM; serum: 10% FBS; 72 h
Where a name gives a salt, the structure may show the parent alone.
PROPERTY LABEL: relative viability (%)
Entry rule: numbers only, all in %.

relative viability for CO/N=C(\C(=O)N[C@@H]1C(=O)N2C(C(=O)O)=C(CSC(=O)c3ccco3)CS[C@H]12)c1csc(N)n1 [Ceftiofur HCl] is 110

According to the records, this compound C[C@]12C=CC(=O)N[C@@H]1CC[C@@H]1[C@@H]2CC[C@]2(C)[C@@H](C(=O)Nc3cc(C(F)(F)F)ccc3C(F)(F)F)CC[C@@H]12 [Dutasteride (Avodart)] displays relative viability of 98.5

Kindly note the recorded relative viability for Cc1ccc(F)c(NC(=O)Nc2ccc(-c3cccc4[nH]nc(N)c34)cc2)c1 [ABT-869] , which is 86

Record COc1nc(C)cnc1NS(=O)(=O)c1cccnc1-c1ccc(-c2nnco2)cc1 [Zibotentan (ZD4054)] , field relative viability: 120

The value of relative viability measured for the compound FC(F)(F)c1ccc(Nc2nc3ccc(Oc4ccnc(-c5ncc(C(F)(F)F)[nH]5)c4)cc3[nH]2)cc1 [Raf265 derivative] turned out to be 72.5

Entry N#CC1(c2ccc(NC(=O)c3cccnc3NCc3ccncc3)cc2)CCCC1 [Apatinib] — recorded relative viability = 101

// field: relative viability; key: CN1CC[C@H](c2c(O)cc(O)c3c(=O)cc(-c4ccccc4Cl)oc23)[C@H](O)C1 [Flavopiridol (Alvocidib)] ; value = 11.7
